B1: glmS ribozyme (parent)
chain: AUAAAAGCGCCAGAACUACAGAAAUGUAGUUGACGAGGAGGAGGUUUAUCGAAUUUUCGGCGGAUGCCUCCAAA

- Variants of: B1
- assayName: self-cleavage kobs at 640 uM GlcN6P; higher = faster cleavage; RNA array
- conditionSet: with glucosamine-6-phosphate
This sample holds only a part of the variants without activity.
Response key: yes means self-cleavage kobs at 640 uM GlcN6P >= 0.0001 s⁻¹; no means self-cleavage kobs at 640 uM GlcN6P < 0.0001 s⁻¹.

Illustrative cases are given below, each with its answer.
sequenceContent | classAssignment
AUAAAAGCGCCAGAACUACAGAAAUGUAGUUGACGAGGAGGAGGUUUAUCGAAUUUUCGGCGGAUUCCUCUAAA [G66U C71U] | yes
AUAAAAGCGCCAGAACUACAGAAAUGUAGUUGUCGAGGAGGAGGUUUCUCGAAUUUUCGGCGAAUGCCUCCAAA [A33U A48C G63A] | no
AUAAAAGCGCGAGAAGUACAGAAAUGUAGUUGACGAGAAGGAGGUUUAUCGAAUUUUCGGCGAAUGCCUCCAAA [C11G C16G G38A G63A] | no
AUAAAGGCGCCAGACCUACAGAAAUGUAGUUUACGAGGAGGAGGUUUAUCGAAUUUUCGGCGGAUGCCUCCAAA [A6G A15C G32U] | no
AUAAAAGCUCCAGAACUACAGAAAUGUAGUUGACGAGGAGGAGGUUUAUCGAAUUUUCGGGGGAUGCCUCCAAA [G9U C61G] | no
AUAAAAGCGCCAGAACUACAGAAAUGUAGUUGACGAGAAAGAGGUUUAUCGAAUUUUCGGCGGAUGCCUCCAAA [G38A G40A] | no
AUAAAAGCGCCAAAACUACAGAAAUGUAGUUGACGAGGAGGAGGUUUAUCGAAUUUACGGCGGCUGCAUCCAAA [G13A U57A A64C C68A] | yes
AUAAAAGCGCCGGAACUACAGAAAUGUAGUUGACGGGGAAGAGGUUUAUCGAAGUUUCGGCGGAUGCCUCCAAA [A12G A36G G40A U54G] | no

INPUT: # bool: self-cleavage kobs at 640 uM GlcN6P of AUAAAAGCGCCAGAUCUACAGAAAUGUAGUUGACGAGGAGGAGGUUUAUCGAAUUUUCGGCGGAUGCCUCUAAA [A15U C71U] >= 0.0001 s⁻¹
OUTPUT: yes

INPUT: Identify whether the reported self-cleavage kobs at 640 uM GlcN6P of the following variant is 0.0001 s⁻¹ or greater: AUAAAAGCGCCAGAACUACAGAAAUGUAGUUAACGAGGAGGAGGUUUAUUGAAUUUUCGGCGGAUGCCUGCAAA [G32A C50U C70G]
OUTPUT: yes

INPUT: Check this variant for self-cleavage kobs at 640 uM GlcN6P at or above 0.0001 s⁻¹: AUAAAAUCGCCAGAACUACAGAAAUGUAGUUGACGAGCAGGAGGUUUAUCGAAUUUUCGGCGGAUGCCUCCAAA [G7U G38C]
OUTPUT: no

INPUT: Reported self-cleavage kobs at 640 uM GlcN6P reaches at least 0.0001 s⁻¹ for AUAAAAGCGCCAGAAGUACAGAAAUGUAGUUAACGAGGAGGAGGUUUAUCGAAUUUUCGGCGGAUGCUUCCAAA [C16G G32A C68U] ?
OUTPUT: yes

INPUT: Could you verify whether the entry AUAAAGGCGCCAGAACUACAGAAAUGUAGUUGACGAGGAGGCGGUUUAUCGAAUUUUCGGCGGAUGCCUCUAAA [A6G A42C C71U] shows self-cleavage kobs at 640 uM GlcN6P of no less than 0.0001 s⁻¹?
OUTPUT: no

INPUT: I'd appreciate it if you could say whether AUAAAAGCGCCAGAACUACAGAAAUGUAGUUGACGAGGAGUAGGUUUAACGAAUUUUCGGCGGAUGCCUCCAAA [G41U U49A] has self-cleavage kobs at 640 uM GlcN6P at least equal to 0.0001 s⁻¹.
OUTPUT: no

INPUT: Form field: self-cleavage kobs at 640 uM GlcN6P at least 0.0001 s⁻¹? Entry: UGGAAAGCGCCAGAACUACAGAAAUGUAGUUGACGAGGAGGAGGUUUAUCGAAUUUUCGGCGGAUGCCUACAAA [A1U U2G A3G C70A]
OUTPUT: yes

INPUT: Does the variant AUAAAUGCGCCAGUACUACAGAAAUGUAGUUGACGAGGAGGAGGUUUAUCGAAUUUUCGGCGGAUGCCUCCAAA [A6U A14U] have recorded self-cleavage kobs at 640 uM GlcN6P that is 0.0001 s⁻¹ or more?
OUTPUT: no

INPUT: Determine whether this variant has self-cleavage kobs at 640 uM GlcN6P no lower than 0.0001 s⁻¹: AUAAAAGGGCCAGAUCUACAGAAAUGUAGUUGACGAGGAGGAGGUUUAUCGAAUUUUCGGCCGAUGCCUCCAAA [C8G A15U G62C]
OUTPUT: no

INPUT: Textbook exercise: given the entry AUAAAAGCGCCAGAACUACAGAAAUGUAGUUGACGAAGAGGAGGUUUAUGGAAUUUUCGGCGGAUGCCCCCAAA [G37A C50G U69C] , state whether its self-cleavage kobs at 640 uM GlcN6P is greater than or equal to 0.0001 s⁻¹.
OUTPUT: no

INPUT: API: above_or_equal(metric=self-cleavage kobs at 640 uM GlcN6P, cutoff=0.0001 s⁻¹) for item AUAAAACCGCCAGAACUACAGAAAUGUAGUUGACGAGGAGGAGGUUUAUCGAAUUUUCGGCGGAUGCCUACAAA [G7C C70A]
OUTPUT: no

INPUT: Textbook exercise: given the entry AUAAAAGCGCCAGAACUACAGAAAUGUAGUUGACAAGGAGGAGGUUUAUAAAAUUUUCGGCGGAUGCCUCCAAA [G35A C50A G51A] , state whether its self-cleavage kobs at 640 uM GlcN6P is greater than or equal to 0.0001 s⁻¹.
OUTPUT: no

INPUT: // inclusive: self-cleavage kobs at 640 uM GlcN6P at least 0.0001 s⁻¹? input: AUAAAAGCGCCAGAACUACAGAAAUGUAGAUGACGAGUAGGAGGUUUAUCGAAUUUUCGGCGGAGGCGUCCAAA [U30A G38U U65G C68G]
OUTPUT: yes

INPUT: Is self-cleavage kobs at 640 uM GlcN6P for AUAAAAGCGCCGGAACUACAGAAAUGUAGUUGACGAGGAGGAGGUUUAUCGAAUGUUCGGCGGAUGCCUCCAAA [A12G U55G] at or above 0.0001 s⁻¹?
OUTPUT: yes

INPUT: Exam item: decide whether the reported self-cleavage kobs at 640 uM GlcN6P for AUAAAAGCGCCAGAACUACAGAAAUGUACUUGACGAGGAGGAGGUUUAUCGAAGUUUCGGCGGAUGCCUGCAAA [G29C U54G C70G] is at least 0.0001 s⁻¹.
OUTPUT: no

INPUT: Check if self-cleavage kobs at 640 uM GlcN6P >= 0.0001 s⁻¹ (inclusive). Item: AUAAAAACGCCAGAACUACAGAAAUGUAGUUGACGAGGAGGAGCUUUAUUGAAUUUUCGGCGGAUGCCUCCAAA [G7A G44C C50U]
OUTPUT: no

Ref: the supplement of paper PMC7125110
